System: human lung carcinoma A549 cells
assaySummary: MTT assay, A549 cells
Assay type: cell-based
conditions: A549, 72-h incubation, Table 5
parameterMeasured: pIC50
Scale: pIC50 equals -log10([C]), with [C] in mol/L.

Query :: For human lung carcinoma A549 cells, give pIC50 of the listed molecule: O=[N+]([O-])[O-].[NH3+][Pt-2]([NH3+])([Cl])[n+]1cccc2ccccc21 (stereo not drawn) [cis-[Pt(NH3)2(quinoline)Cl]NO3]
Result :: 5.21

###

Test system: NTera2 (Testis) cells
assaySummary: MTT assay, NTera2 cells
Format: cell-based, human
conditions: 72-h incubation, Table 3
parameterMeasured: IC50

Query :: State its IC50: O=C1[O][Pt]2([NH][C@@H]3CCCC[C@H]3[NH]2)[O]C1=O [oxaliplatin]
Result :: 1210 nM

Data provenance: patent US20130029959A1
